Molecular target: human ether-à-go-go-related gene (hERG) potassium channel (human);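 further: peak tail current of the secondary pulse compared with the same well before compound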
Assay: primary screen, population patch clamp on CHO cells stably expressing hERG; higher = less effect of the substance
The whole screen tested about 310,000 compounds, of which about 14,000 (4.5%) showed an effect of 50% or more. Effects have a minus sign here. Many of the other results were omitted from the sample, so strong results are more common in it than they were.
Parameter hERG current change (%, negative = inhibition) at 10uM: see the listing below.
Your answer should be a plain number; it is taken to be in %.

Solved entries:
[
  {
    "compound": "CCCc1nc(N2CCCC2)c(C#N)c2c1CCCC2",
    "measure.unit": "%",
    "observed.measurement": 4.06
  },
  {
    "compound": "COC(=O)CN1C(=S)N(c2ccc(OC)cc2)C(=O)/C1=C/c1cccs1",
    "measure.unit": "%",
    "observed.measurement": 34
  },
  {
    "compound": "CC(C(=O)NC1CCCc2ccccc21)N1CCN(c2ccc(F)cc2)CC1 (stereo not shown)",
    "measure.unit": "%",
    "observed.measurement": -35.6
  },
  {
    "compound": "O=C(Nc1ccc(NC(=O)c2cccs2)cc1)c1ccc2c(c1)OCCO2",
    "measure.unit": "%",
    "observed.measurement": 15.6
  },
  {
    "compound": "Cc1cc(-c2ccc(C)c(S(=O)(=O)NCCCN3CCN(c4ccccc4)CC3)c2)on1",
    "measure.unit": "%",
    "observed.measurement": -33.2
  },
  {
    "compound": "CC(C(=O)NC1CCCc2ccccc21)N1CCN(Cc2ccc3c(c2)OCO3)CC1 (stereo not shown)",
    "measure.unit": "%",
    "observed.measurement": -51.9
  },
  {
    "compound": "CCOC(=O)c1sc(C)c(C(=O)NC2CCCCC2)c1N",
    "measure.unit": "%",
    "observed.measurement": -4.79
  },
  {
    "compound": "C=CCOC(=O)C1=C(C)NC(C)=C(C(=O)OCC=C)C1c1ccc(C)o1",
    "measure.unit": "%",
    "observed.measurement": -27.4
  },
  {
    "compound": "O=C(NC1CCCCC1)C1CCC(CNS(=O)(=O)c2ccccc2)CC1 (stereo not shown)",
    "measure.unit": "%",
    "observed.measurement": 10.3
  }
]

Okay, next one:
Form field: reported hERG current change (%, negative = inhibition) at 10uM of CC(NCc1ccc2c(c1)OCO2)C(=O)NC1CCCc2ccccc21.O=C(O)C(=O)O (stereo not shown)
-22.6

###

Target: human ether-à-go-go-related gene (hERG) potassium channel (human, UniProt Q12809);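 further: peak tail current of the secondary pulse compared with the same well before compound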
Sequence (Q12809 whole entry, looked up): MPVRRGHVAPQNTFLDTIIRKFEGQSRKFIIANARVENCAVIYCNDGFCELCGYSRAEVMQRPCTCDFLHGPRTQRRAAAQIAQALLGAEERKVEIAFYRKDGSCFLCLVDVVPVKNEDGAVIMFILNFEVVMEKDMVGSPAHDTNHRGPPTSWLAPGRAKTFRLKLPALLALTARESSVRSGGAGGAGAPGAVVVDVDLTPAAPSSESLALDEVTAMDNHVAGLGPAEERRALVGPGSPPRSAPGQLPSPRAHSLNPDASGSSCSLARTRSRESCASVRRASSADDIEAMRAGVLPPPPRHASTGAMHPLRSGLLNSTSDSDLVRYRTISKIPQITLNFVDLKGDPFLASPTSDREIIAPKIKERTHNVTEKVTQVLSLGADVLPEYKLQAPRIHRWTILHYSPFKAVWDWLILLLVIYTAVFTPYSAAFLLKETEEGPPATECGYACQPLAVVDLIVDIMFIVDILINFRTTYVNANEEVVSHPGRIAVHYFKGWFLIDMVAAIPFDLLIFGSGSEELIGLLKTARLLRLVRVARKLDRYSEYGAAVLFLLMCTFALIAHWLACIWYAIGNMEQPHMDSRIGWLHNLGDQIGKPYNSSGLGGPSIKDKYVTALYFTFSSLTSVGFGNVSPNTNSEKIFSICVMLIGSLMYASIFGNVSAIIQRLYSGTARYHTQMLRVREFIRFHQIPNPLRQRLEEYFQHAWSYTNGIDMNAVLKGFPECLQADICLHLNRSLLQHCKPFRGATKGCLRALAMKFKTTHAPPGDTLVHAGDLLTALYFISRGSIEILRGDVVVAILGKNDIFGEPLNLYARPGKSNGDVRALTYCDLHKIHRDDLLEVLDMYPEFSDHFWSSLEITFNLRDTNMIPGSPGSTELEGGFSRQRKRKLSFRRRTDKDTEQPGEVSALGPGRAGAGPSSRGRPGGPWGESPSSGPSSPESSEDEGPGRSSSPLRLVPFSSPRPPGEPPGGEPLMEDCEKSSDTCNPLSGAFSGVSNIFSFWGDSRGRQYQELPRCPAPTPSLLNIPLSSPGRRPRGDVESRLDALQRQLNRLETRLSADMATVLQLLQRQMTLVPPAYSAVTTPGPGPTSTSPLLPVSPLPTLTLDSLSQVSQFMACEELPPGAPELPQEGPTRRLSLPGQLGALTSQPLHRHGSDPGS
Assay: primary screen, population patch clamp on CHO cells stably expressing hERG; higher = less effect of the substance
The whole screen tested about 310,000 compounds, of which about 14,000 (4.5%) showed an effect of 50% or more. Effects have a minus sign here. This is one part of a sample in which strong results are shown more often than they occur.
measurement.kind: hERG current change (%, negative = inhibition) at 10uM (%)
Your answer should be a plain number; it is taken to be in %.

[
  {
    "compound": "Cc1noc(N)c1C1(O)C(=O)Nc2c(Cl)cc(Cl)cc21 (stereo not drawn)",
    "assay.target": "human ether-à-go-go-related gene (hERG) potassium channel (human, UniProt Q12809)",
    "measure.unit": "%",
    "observed.measurement": 0.32
  },
  {
    "compound": "COc1cc(/C=N/NC(=O)c2ccccn2)ccc1OC(=O)c1ccccc1Br",
    "assay.target": "human ether-à-go-go-related gene (hERG) potassium channel (human, UniProt Q12809)",
    "measure.unit": "%",
    "observed.measurement": -1.22
  },
  {
    "compound": "CCN(Cc1ccccc1)C(=O)c1cccc(S(=O)(=O)N2CCN(c3ccc(F)cc3)CC2)c1",
    "assay.target": "human ether-à-go-go-related gene (hERG) potassium channel (human, UniProt Q12809)",
    "measure.unit": "%",
    "observed.measurement": -47.2
  },
  {
    "compound": "O=C(Nc1ccc(Cl)cc1)C1=Cc2ccccc2OC1",
    "assay.target": "human ether-à-go-go-related gene (hERG) potassium channel (human, UniProt Q12809)",
    "measure.unit": "%",
    "observed.measurement": -9.34
  },
  {
    "compound": "CC(C)N(Cc1nccn1C)C(=O)c1cc(COc2ccc(F)cc2Cl)on1",
    "assay.target": "human ether-à-go-go-related gene (hERG) potassium channel (human, UniProt Q12809)",
    "measure.unit": "%",
    "observed.measurement": 0.188
  }
]

Field: hERG current change (%, negative = inhibition) at 10uM (human ether-à-go-go-related gene (hERG) potassium channel (human, UniProt Q12809)). Entry: `COc1ccc(CN2CC(=O)N3[C@H]4c5ccccc5OC[C@@H]4[C@H](c4ccccc4)[C@]3(C)C2=O)cc1`
15.3

Field: hERG current change (%, negative = inhibition) at 10uM (human ether-à-go-go-related gene (hERG) potassium channel (human, UniProt Q12809)). Entry: `COc1cccc(OCc2cc(C(=O)N(Cc3nccn3C)C(C)C)no2)c1`
8.5

Field: hERG current change (%, negative = inhibition) at 10uM (human ether-à-go-go-related gene (hERG) potassium channel (human, UniProt Q12809)). Entry: `Cc1c(C)c2cc(Cl)c(OCC(=O)N3C[C@H]4C[C@@H](C3)c3cccc(=O)n3C4)cc2oc1=O`
1.78

Field: hERG current change (%, negative = inhibition) at 10uM (human ether-à-go-go-related gene (hERG) potassium channel (human, UniProt Q12809)). Entry: CCC(C)NC(=O)CN1C(=O)NC2(CCOc3ccccc32)C1=O (stereo not drawn)
-9.56

###

Biological target: human ether-à-go-go-related gene (hERG) potassium channel (human);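 further: peak tail current of the secondary pulse compared with the same well before compound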
Assay: primary screen, population patch clamp on CHO cells stably expressing hERG; higher = less effect of the substance
The whole screen tested about 310,000 compounds, of which about 14,000 (4.5%) showed an effect of 50% or more. The effect is printed as a negative number. Only a selection was taken, and strong results are over-represented in it overall.
Rule: t for hERG current change (%, negative = inhibition) at 10uM not less than -10%, f for anything less.

Study these solved cases before continuing.
[
  {
    "molecule": "CCOC(=O)C1CCCN(c2nc3c(C)cccn3c(=O)c2/C=C(\\C#N)C(=O)NCc2ccco2)C1 (stereo not drawn)",
    "class": "f"
  },
  {
    "molecule": "CC1=NN(c2ccccc2)C(=O)/C1=C/c1ccc[nH]1",
    "class": "t"
  },
  {
    "molecule": "CCOc1cc(N2CCOCC2)c(OCC)cc1NC(=O)CN1CCCC1",
    "class": "t"
  },
  {
    "molecule": "Fc1ccc(N2CCN(Cc3cc4c(cc3Br)OCO4)CC2)cc1",
    "class": "t"
  },
  {
    "molecule": "Oc1cc2c(cc1CN1CCN(c3ccc(F)cc3)CC1)OCO2",
    "class": "t"
  }
]

Does `C/C(=C\c1ccccc1)C(=O)N1CCN(Cc2ccc3c(c2)OCO3)CC1` have a reported hERG current change (%, negative = inhibition) at 10uM of at least -10%?
f

Does CCC(C)n1c(SCC(=O)Nc2ccccc2C(F)(F)F)nc2ccsc2c1=O (stereo not drawn) have a reported hERG current change (%, negative = inhibition) at 10uM of at least -10%?
f

Does `O=C(CSCc1ccccc1)N1CCN(Cc2ccc3c(c2)OCO3)CC1` have a reported hERG current change (%, negative = inhibition) at 10uM of at least -10%?
f

Does `C/C(=N\Nc1ccc(Cl)cc1)c1c(O)cc(C)oc1=O` have a reported hERG current change (%, negative = inhibition) at 10uM of at least -10%?
t

Does CC1CCCCC1NCC(=O)NCc1ccc(F)cc1.O=C(O)C(=O)O (stereo not drawn) have a reported hERG current change (%, negative = inhibition) at 10uM of at least -10%?
t

Does `O=C1CCc2cc(S(=O)(=O)N3CCN(Cc4ccc5c(c4)OCO5)CC3)ccc2N1` have a reported hERG current change (%, negative = inhibition) at 10uM of at least -10%?
f

Does O=C1C2C(C(=O)N1c1nccs1)C1C=CC2C12CC2 (stereo not drawn) have a reported hERG current change (%, negative = inhibition) at 10uM of at least -10%?
t

Does `Cc1ccc2c(c1)N(CCC(=O)NCCN1CCOCC1)C(=O)CO2` have a reported hERG current change (%, negative = inhibition) at 10uM of at least -10%?
t

Does `CCOc1cc(N2CCOCC2)c(OCC)cc1NC(=O)CN1CCN(Cc2ccc3c(c2)OCO3)CC1.Cl` have a reported hERG current change (%, negative = inhibition) at 10uM of at least -10%?
f

Does `C/C(=N\NC(=S)Nc1ccc(F)cc1)C1CC1` have a reported hERG current change (%, negative = inhibition) at 10uM of at least -10%?
f

Does `Fc1ccc(N2CCN(Cc3ccc4c(c3)OCO4)CC2)cc1` have a reported hERG current change (%, negative = inhibition) at 10uM of at least -10%?
f

Does COc1ccc(N2CCN(C(C)C(=O)Nc3nnc(C)s3)CC2)cc1.Cl (stereo not drawn) have a reported hERG current change (%, negative = inhibition) at 10uM of at least -10%?
t

Does `Cc1cc(C)n(-c2nnc(C)n2NC(=O)c2cccc(Cl)c2)n1` have a reported hERG current change (%, negative = inhibition) at 10uM of at least -10%?
t

Does `O=S(=O)(c1cccc(F)c1)N1CCN(Cc2ccc3c(c2)OCO3)CC1` have a reported hERG current change (%, negative = inhibition) at 10uM of at least -10%?
f

Does `Cn1c(=O)c2c(nc(SCC(=O)O)n2Cc2cc3c(cc2Cl)OCO3)n(C)c1=O` have a reported hERG current change (%, negative = inhibition) at 10uM of at least -10%?
t

Does `COc1ccccc1C(=O)NCCC(=O)NCc1ccncc1` have a reported hERG current change (%, negative = inhibition) at 10uM of at least -10%?
t
